Hey, just so you know, these numbers are from PubChem BioAssay (NCI).

Test system: MOLT-4 leukemia
Assay notes: NCI tumour cell line growth inhibition, 48 h
List of TGI values.

1) O=C(Nc1ccc(Cl)cc1)c1cc(S(=O)(=O)Nc2nnc(-c3ccccc3)c(-c3ccccc3)n2)c(SCc2ccccc2)cc1Cl :: > 60.4 µM

// next item, TGI requested
Query :: Quick one: give measured TGI for Cn1c2ccccc2n2c3ccccc3c(=O)c(C#N)c12
Result :: 17.8 µM

====

System: SR leukemia
Assay notes: NCI tumour cell line growth inhibition, 48 h
List of TGI values.
API: value field is a number in µM; no unit string.

Consider the reported TGI for these compounds:
1) COc1cc2cc(Oc3ccc(NC(=O)Nc4ccc(Cl)c(C(F)(F)F)c4)cc3)c(C)nc2cc1OC :: 2.65
2) COC(=O)C1=C(O)CCCC(CCC(C)=O)=C1 :: 66
3) COc1cc(NCc2ccccc2O)c2ncccc2c1 :: 58.3

// next item, TGI requested
Query :: Please look at C[N+](C)(C)CC(=O)N/N=C(/CC1OC(=O)c2ccccc21)c1ccccc1O (stereo not given) and tell me its recorded TGI on SR leukemia.
Result :: 34
